- Tested on: windgrass (Apera spica-venti)
- assay_explanation: Test D controlled growth environment herbicide test, pre- and postemergence
- Type: in vivo
- condition_details: Preemergence, 250 g ai/ha; scale 0 to 100, 0 no effect, 100 complete control
So I've got a bunch of compounds here, and I need their Plant response rating, Windgrass values.
Numbers only.

COC(=O)Oc1c(C)nn(C)c(=O)c1-c1c(C)sc2ccc(C)cc12 [Compound 80] : 98
Cn1nc(Br)c(O)c(-c2cccc3ccccc23)c1=O [Compound 20] : 60
Cc1cc2ccccc2c(-c2c(O)c(C)nn(C)c2=O)c1C [Compound 34] : 70

Query string: Provide Plant response rating, Windgrass value for the following compound: Cc1ccc2sc(C)c(-c3c(OC(=O)OC(C)C)c(C)nn(C)c3=O)c2c1 [Compound 66]
Result string: 85

* * *

- System: pigweed (Amaranthus retroflexus)
- assay_explanation: Test C greenhouse herbicide test, pre- and postemergence
- Assay type: in vivo
- condition_details: Postemergence, 250 g ai/ha; scale 0 to 100, 0 no effect, 100 complete control; 13 to 15 d
measured_endpoint: Plant response rating, Pigweed
Numbers only.

CCC(=O)Oc1c(C)nn(C)c(=O)c1-c1ccc(Br)c2ccccc12 : 100
CC(=O)Oc1c(C)nn(C)c(=O)c1-c1c(C)cc(C)c2ccccc12 : 95
COC(=O)Oc1c(C)nn(C)c(=O)c1-c1ccc(Br)c2ccccc12 : 100

Could I get Plant response rating, Pigweed for every one of these entries?
1. Cc1ccc2ccccc2c1-c1c(O)c(Br)nn(C)c1=O
2. Cc1ccc2ccccc2c1-c1c(O)c(I)nn(C)c1=O
3. COC(=O)Oc1c(OC)nn(C)c(=O)c1-c1c(C)ccc2ccccc12
4. Cc1cc(C)c2sc(C)c(-c3c(O)c(C)nn(C)c3=O)c2c1
5. Cc1nn(C)c(=O)c(-c2cccc3ccccc23)c1O

Result string:
[98, 98, 98, 98, 95]

Query string: Provide Plant response rating, Pigweed value for the following compound: Cc1nn(C)c(=O)c(-c2c(C)sc3ccc(Br)cc23)c1O
Result string: 98

* * *

- Tested on: windgrass (Apera spica-venti)
- assay_explanation: Test D controlled growth environment herbicide test, pre- and postemergence
- Format: in vivo
- condition_details: postemergence, 62 g ai/ha; scale 0 to 100, 0 no effect, 100 complete control
measured_endpoint: Plant response rating, Windgrass
Give bare numbers.

The examples below pair each entry with its known result.
Cc1nn(C)c(=O)c(-c2cccc3ccc(Br)cc23)c1O : 20
Cc1nn(C)c(=O)c(-c2ccc(Br)c3ccccc23)c1O : 15
Cc1ccc2sc(Br)c(-c3c(O)c(C)nn(C)c3=O)c2c1 : 20
Cc1ccc2ccccc2c1-c1c(OC(=O)OC(C)C)c(C)nn(C)c1=O : 75

# input for lookup
Query string: Supply Plant response rating, Windgrass measured with windgrass (Apera spica-venti) for Cc1cc(C)c2ccccc2c1-c1c(O)c(C)nn(C)c1=O .
Result string: 80

* * *

So I've got a bunch of compounds here, and I need their Foxtail, Giant plant response rating values.
- Tested on: foxtail, giant (giant foxtail, Setaria faberii)
- assay_explanation: Test A greenhouse herbicide test, pre- and postemergence
- Format: in vivo
- condition_details: Preemergence, 125 g ai/ha; 0 to 100 scale where 0 is no effect and 100 is complete control
Give bare numbers.

The examples below pair each entry with its known result.
Cc1nn(C)c(=O)c(-c2cccc3ccc(C4CC4)cc23)c1O : 0
CCc1nn(CC)c(=O)c(-c2c(C)oc3ccc(C)cc23)c1O : 0

Could I get Foxtail, Giant plant response rating for every one of these entries?
1. CC(=O)Oc1c(C)nn(C)c(=O)c1-c1c(C)sc2ccc(Cl)cc12
2. Cc1ccc2ccccc2c1-c1c(O)c(C(F)(F)F)nn(C)c1=O
3. CCc1ccc2ccccc2c1-c1c(OC(=O)C2CC2)c(C)nn(C)c1=O
4. COc1nn(C)c(=O)c(-c2c(C)sc3ccc(Cl)cc23)c1OC(C)=O
5. CCc1sc2c(C)cc(C)cc2c1-c1c(O)c(C)nn(C)c1=O
6. CCC(=O)Oc1c(OC)nn(C)c(=O)c1-c1c(C)sc2ccc(Cl)cc12
7. COC(=O)Oc1c(OC)nn(C)c(=O)c1-c1c(C)sc2ccc(Cl)cc12

Result string:
[90, 70, 0, 30, 100, 80, 50]

Measured values drawn from patent US10597388B2 for this set.
